Study target: rat mGlu 1a receptor (Rattus norvegicus, UniProt P23385)
Construct: expressed in transfected cells; host or cells: EBNA cells (transient transfection)
Sequence (P23385 19-1199): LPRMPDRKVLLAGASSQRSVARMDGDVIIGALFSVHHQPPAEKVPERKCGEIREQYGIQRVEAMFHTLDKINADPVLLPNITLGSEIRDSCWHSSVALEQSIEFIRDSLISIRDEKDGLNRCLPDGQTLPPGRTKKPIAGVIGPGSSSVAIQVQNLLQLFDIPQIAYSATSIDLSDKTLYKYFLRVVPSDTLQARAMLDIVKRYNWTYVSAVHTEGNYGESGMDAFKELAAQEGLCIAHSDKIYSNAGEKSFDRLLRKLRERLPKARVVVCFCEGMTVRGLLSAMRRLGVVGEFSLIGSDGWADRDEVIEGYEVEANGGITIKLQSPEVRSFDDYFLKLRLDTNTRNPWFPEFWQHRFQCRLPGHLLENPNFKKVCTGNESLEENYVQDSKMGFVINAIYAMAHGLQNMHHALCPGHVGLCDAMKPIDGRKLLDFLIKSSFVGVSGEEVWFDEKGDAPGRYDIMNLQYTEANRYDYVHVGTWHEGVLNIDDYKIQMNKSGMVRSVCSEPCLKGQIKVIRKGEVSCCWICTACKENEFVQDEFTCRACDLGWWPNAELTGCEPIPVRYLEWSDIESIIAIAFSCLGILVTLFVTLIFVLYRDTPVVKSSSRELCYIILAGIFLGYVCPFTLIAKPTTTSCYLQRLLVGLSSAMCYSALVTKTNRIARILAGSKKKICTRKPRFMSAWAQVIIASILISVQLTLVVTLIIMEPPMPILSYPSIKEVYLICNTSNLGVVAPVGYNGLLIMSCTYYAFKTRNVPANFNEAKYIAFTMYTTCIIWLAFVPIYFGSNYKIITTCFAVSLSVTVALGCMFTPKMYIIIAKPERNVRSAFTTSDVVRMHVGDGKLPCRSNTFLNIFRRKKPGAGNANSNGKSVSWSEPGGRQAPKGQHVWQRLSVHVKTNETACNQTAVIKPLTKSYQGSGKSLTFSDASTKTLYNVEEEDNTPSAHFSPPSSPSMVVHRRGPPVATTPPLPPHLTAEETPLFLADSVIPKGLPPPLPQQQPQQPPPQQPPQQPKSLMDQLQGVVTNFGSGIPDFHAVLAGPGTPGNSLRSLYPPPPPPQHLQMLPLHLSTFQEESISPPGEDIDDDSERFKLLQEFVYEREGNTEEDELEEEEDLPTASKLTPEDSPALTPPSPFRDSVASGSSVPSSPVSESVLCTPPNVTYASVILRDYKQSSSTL
Procedure text: [Ca2+]i measurements (FLIPR, Fluo-3 AM) on mGlu 1a transfected EBNA cells; agonist or antagonist (against 10 μM glutamate)
Type: cell-based
Measurement parameters: table of substituents of the Examples, column Remarks

Compound: O=S(=O)(c1cccc(F)c1)N1CCCC1c1ccc(F)cc1 (racemic) [Example 64]
Remarks (agonist / antagonist): Antagonist
--
Compound: O=S(=O)(c1ccc(F)cc1)N1CCCC1c1ccc(F)cc1 (racemic) [Example 16]
Remarks (agonist / antagonist): Agonist
--
Compound: O=S(=O)(c1ccc(Cl)cc1)N1CCC[C@H]1c1ccc(F)cc1 [Example 77]
Remarks (agonist / antagonist): Agonist
--
Compound: N#Cc1ccc(S(=O)(=O)N2CCCC2c2ccc(F)cc2)cc1 (racemic) [Example 33]
Remarks (agonist / antagonist): Antagonist
--
Compound: CCCc1ccc(S(=O)(=O)N2CCCC2c2ccc(F)cc2)cc1 (racemic) [Example 59]
Remarks (agonist / antagonist): Antagonist
--
Compound: Cc1ccc(C2CCCN2S(=O)(=O)c2ccc(Cl)cc2)cc1 (racemic) [Example 20]
Remarks (agonist / antagonist): Antagonist
--
Compound: Cc1ccc(S(=O)(=O)N2CCCC2c2cccc(F)c2)cc1 (racemic) [Example 1]
Remarks (agonist / antagonist): Agonist
--
Compound: COc1ccc(S(=O)(=O)N2CCCC2c2ccc(F)cc2)cc1 (racemic) [Example 10]
Remarks (agonist / antagonist): Antagonist
--
Compound: Cc1ccc(S(=O)(=O)N2CCCC2c2ccsc2)cc1 (racemic) [Example 55]
Remarks (agonist / antagonist): Agonist
--
Compound: O=S(=O)(c1ccc(Cl)cc1)N1CCCC1c1ccc(F)cc1 (racemic) [Example 11]
Remarks (agonist / antagonist): Agonist
--
Compound: O=S(=O)(c1ccc(Cl)cc1)N1CCCC1c1ccc(F)c(Cl)c1 (racemic) [Example 43]
Remarks (agonist / antagonist): Antagonist
--
Compound: COc1ccc(C2CCCN2S(=O)(=O)c2ccc(Cl)cc2)cc1 (racemic) [Example 24]
Remarks (agonist / antagonist): Antagonist
--
Compound: O=S(=O)(c1ccccc1)N1CCCC1c1ccc(Cl)cc1 (racemic) [Example 13]
Remarks (agonist / antagonist): Agonist
--
Compound: Cc1ccc(C2CCCN2S(=O)(=O)c2ccc(C)cc2)cc1 (racemic) [Example 19]
Remarks (agonist / antagonist): Agonist
--
Compound: Cc1ccc(S(=O)(=O)N2CCCC2c2cccnc2)cc1 (racemic) [Example 83]
Remarks (agonist / antagonist): Agonist
--
Compound: O=S(=O)(c1ccc(Cl)cc1)N1CCCC1c1ccsc1 (racemic) [Example 56]
Remarks (agonist / antagonist): Agonist
--
Compound: Cc1ccc(S(=O)(=O)N2CCCC2c2ccc(Cl)c(C)c2)cc1 (racemic) [Example 58]
Remarks (agonist / antagonist): Agonist
--
Compound: Cc1ccc(S(=O)(=O)N2CCCC2c2cccc(C)c2)cc1 (racemic) [Example 28]
Remarks (agonist / antagonist): Agonist

---

Study target: rat mGlu 1a receptor (Rattus norvegicus, UniProt P23385)
Construct: expressed in transfected cells; host or cells: EBNA cells (transient transfection)
Procedure text: [Ca2+]i measurements (FLIPR, Fluo-3 AM) on mGlu 1a transfected EBNA cells; agonist or antagonist (against 10 μM glutamate)
Format: cell-based
Measurement parameters: table of substituents of the Examples, column Remarks

Compound: Cc1ccc(S(=O)(=O)N2CCC[C@H]2c2ccc(F)cc2)cc1 [Example 82]
Remarks (agonist / antagonist): Agonist

Compound: Cc1ccc(S(=O)(=O)N2CCCC2c2ccncc2)cc1 (racemic) [Example 3]
Remarks (agonist / antagonist): Agonist

Compound: CCc1ccc(C2CCCN2S(=O)(=O)c2ccc(Cl)cc2)cc1 (racemic) [Example 79]
Remarks (agonist / antagonist): Antagonist

Compound: O=S(=O)(c1ccc(F)cc1)N1CCCC1c1ccc(C(F)(F)F)cc1 (racemic) [Example 50]
Remarks (agonist / antagonist): Antagonist

Compound: CCc1ccc(C2CCCN2S(=O)(=O)c2ccc(C)cc2)cc1 (racemic) [Example 78]
Remarks (agonist / antagonist): Agonist

Compound: O=S(=O)(c1ccc(Cl)cc1)N1CCCC1c1cccc(F)c1 (racemic) [Example 2]
Remarks (agonist / antagonist): Agonist

Compound: Cc1ccc(S(=O)(=O)N2CCCC2c2ccc(Cl)cc2)cc1 (racemic) [Example 8]
Remarks (agonist / antagonist): Agonist

Compound: O=S(=O)(c1ccc(Cl)cc1)N1CCCC1c1cccc(Cl)c1 (racemic) [Example 32]
Remarks (agonist / antagonist): Antagonist

Compound: Cc1ccc(S(=O)(=O)N2CCCC2c2cccs2)cc1 (racemic) [Example 37]
Remarks (agonist / antagonist): Antagonist

Compound: O=S(=O)(c1ccccc1)N1CCCC1c1ccc(F)cc1 (racemic) [Example 7]
Remarks (agonist / antagonist): Antagonist

Compound: Cc1ccc(S(=O)(=O)N2CCCC2c2ccc(F)cc2)cc1Cl (racemic) [Example 62]
Remarks (agonist / antagonist): Antagonist

Compound: CC(C)c1ccc(S(=O)(=O)N2CCCC2c2ccc(F)cc2)cc1 (racemic) [Example 22]
Remarks (agonist / antagonist): Antagonist

Compound: Cc1ccc(S(=O)(=O)N2CCCC2c2ccccc2)cc1 (racemic) [Example 4]
Remarks (agonist / antagonist): Agonist

Compound: N#Cc1ccccc1S(=O)(=O)N1CCCC1c1ccc(F)cc1 (racemic) [Example 65]
Remarks (agonist / antagonist): Antagonist

Compound: Cc1ccc(S(=O)(=O)N2CCCC2c2ccco2)cc1 (racemic) [Example 69]
Remarks (agonist / antagonist): Agonist

Compound: CCc1ccc(C2CCCN2S(=O)(=O)c2ccc(F)cc2)cc1 (racemic) [Example 80]
Remarks (agonist / antagonist): Antagonist

---

Study target: rat mGlu 1a receptor (Rattus norvegicus, UniProt P23385)
Construct: expressed in transfected cells; host or cells: EBNA cells (transient transfection)
Procedure text: [Ca2+]i measurements (FLIPR, Fluo-3 AM) on mGlu 1a transfected EBNA cells; agonist or antagonist (against 10 μM glutamate)
Format: cell-based
Measurement parameters: activity-data table
Observable: agonist/antagonist

Molecule: Cc1ccc(S(=O)(=O)N2CCCC2c2ccncc2)cc1 (racemic)
Observable: agonist/antagonist
Value measured: agonist
//
Molecule: Cc1ccccc1S(=O)(=O)N1CCCC1c1ccc(F)cc1 (racemic)
Observable: agonist/antagonist
Value measured: antagonist
//
Molecule: O=S(=O)(c1ccc(Cl)cc1)N1CCCC1c1cccs1 (racemic)
Observable: agonist/antagonist
Value measured: antagonist
//
Molecule: Cc1ccc(S(=O)(=O)N2CCC(C)C2c2ccc(F)cc2)cc1 (racemic)
Observable: agonist/antagonist
Value measured: agonist
//
Molecule: O=S(=O)(c1ccccc1)N1CCCC1c1ccc(F)cc1 (racemic)
Observable: agonist/antagonist
Value measured: antagonist
//
Molecule: Cc1ccc(S(=O)(=O)N2CCCC2c2ccccc2)cc1 (racemic)
Observable: agonist/antagonist
Value measured: agonist

---

Study target: rat mGlu 1a receptor (Rattus norvegicus, UniProt P23385)
Procedure text: [Ca2+]i measurements (FLIPR, Fluo-3 AM) on mGlu 1a transfected EBNA cells; agonist or antagonist (against 10 μM glutamate)
Measurement parameters: agonist; activation of mGlu 1a in EBNA cells; read-out: IC50 (compounds marked agonist)
Quick reference for EC50 among some compounds

Compound: Cc1ccc(S(=O)(=O)N2CCCC2c2ccncc2)cc1 (racemic) [Example 3]
Unit abbreviation: nM
EC50: 8220
//
Compound: Cc1ccc(S(=O)(=O)N2CCCC2c2ccccc2)cc1 (racemic) [Example 4]
Unit abbreviation: nM
EC50: 230
//
Compound: Cc1ccc(S(=O)(=O)N2CCC(C)C2c2ccc(F)cc2)cc1 (racemic) [Example 88]
Unit abbreviation: nM
EC50: 620

---

Study target: rat mGlu 1a receptor (Rattus norvegicus, UniProt P23385)
Construct: expressed in transfected cells; host or cells: EBNA cells (transient transfection)
Procedure text: [Ca2+]i measurements (FLIPR, Fluo-3 AM) on mGlu 1a transfected EBNA cells; agonist or antagonist (against 10 μM glutamate)
Format: cell-based
Measurement parameters: table of substituents of the Examples, column Remarks
Observable: Remarks (agonist / antagonist)

Molecule: NCc1ccc(S(=O)(=O)N2CCCC2c2ccc(F)cc2)cc1 (racemic) [Example 87]
Observable: Remarks (agonist / antagonist)
Value measured: Antagonist
//
Molecule: Cc1ccc(S(=O)(=O)N2CCCC2c2ccc(N(C)C)cc2)cc1 (racemic) [Example 72]
Observable: Remarks (agonist / antagonist)
Value measured: Agonist
//
Molecule: Cc1cc(C)c(S(=O)(=O)N2CCCC2c2ccc(F)cc2)c(C)c1 (racemic) [Example 61]
Observable: Remarks (agonist / antagonist)
Value measured: Antagonist
//
Molecule: O=S(=O)(c1ccc(Cl)cc1)N1CCCC1c1ccc(F)c(F)c1 (racemic) [Example 39]
Observable: Remarks (agonist / antagonist)
Value measured: Agonist
//
Molecule: O=S(=O)(c1ccc2ccccc2c1)N1CCCC1c1ccc(F)cc1 (racemic) [Example 66]
Observable: Remarks (agonist / antagonist)
Value measured: Antagonist
//
Molecule: Cc1ccc(S(=O)(=O)N2CCCC2c2ccc(F)c(Cl)c2)cc1 (racemic) [Example 42]
Observable: Remarks (agonist / antagonist)
Value measured: Agonist
//
Molecule: CC(=O)c1ccc(S(=O)(=O)N2CCCC2c2ccc(F)cc2)cc1 (racemic) [Example 27]
Observable: Remarks (agonist / antagonist)
Value measured: Antagonist
//
Molecule: CN(C)c1ccc(C2CCCN2S(=O)(=O)c2ccc(F)cc2)cc1Cl (racemic) [Example 46]
Observable: Remarks (agonist / antagonist)
Value measured: Antagonist
